measurement-target: interaction of MHV M-GFP with Cherry-MYO5B+D tail (902T) in A549 cells (UniProt P03415+Q9ULV0)
Sequence (Q9ULV0 902-1848, one chain of several): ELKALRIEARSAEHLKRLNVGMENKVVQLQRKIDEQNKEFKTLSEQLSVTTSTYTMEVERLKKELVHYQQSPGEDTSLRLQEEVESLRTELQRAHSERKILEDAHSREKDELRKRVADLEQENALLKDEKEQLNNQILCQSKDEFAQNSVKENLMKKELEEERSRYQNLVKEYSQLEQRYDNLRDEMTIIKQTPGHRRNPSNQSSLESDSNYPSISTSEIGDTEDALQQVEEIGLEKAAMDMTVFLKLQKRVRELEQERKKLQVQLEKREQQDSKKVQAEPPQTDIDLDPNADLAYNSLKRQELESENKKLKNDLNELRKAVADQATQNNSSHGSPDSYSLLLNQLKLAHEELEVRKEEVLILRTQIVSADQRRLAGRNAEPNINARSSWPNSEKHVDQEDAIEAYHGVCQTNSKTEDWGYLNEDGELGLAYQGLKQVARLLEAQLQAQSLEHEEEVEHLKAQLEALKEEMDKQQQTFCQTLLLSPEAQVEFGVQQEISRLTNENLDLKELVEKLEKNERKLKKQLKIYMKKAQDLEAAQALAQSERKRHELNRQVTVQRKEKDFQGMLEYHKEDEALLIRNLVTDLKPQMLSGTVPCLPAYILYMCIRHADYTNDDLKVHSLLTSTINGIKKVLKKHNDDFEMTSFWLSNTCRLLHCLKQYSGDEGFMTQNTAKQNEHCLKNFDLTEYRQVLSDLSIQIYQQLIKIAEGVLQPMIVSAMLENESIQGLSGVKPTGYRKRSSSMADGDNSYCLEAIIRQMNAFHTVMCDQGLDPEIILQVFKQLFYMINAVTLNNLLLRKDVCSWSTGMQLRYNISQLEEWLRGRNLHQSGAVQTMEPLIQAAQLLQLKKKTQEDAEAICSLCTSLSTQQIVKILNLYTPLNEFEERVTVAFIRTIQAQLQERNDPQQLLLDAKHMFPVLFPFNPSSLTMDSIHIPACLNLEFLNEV
Type: cell-based, human
parameter-measured: inhibition of the interaction between MHV M and MYO5B+D

{"columns": ["compound", "result"],
 "data": [
  ["CS(=O)(=O)Nc1ccc([N+](=O)[O-])cc1Oc1ccccc1 [Nimesulide]", "more equivocal effects"],
  ["O=C(O)Cc1ccccc1Nc1c(Cl)cccc1Cl", "more equivocal effects"]
]}

Values compiled from patent US20240000885A1.
